Ref: ChEMBL document CHEMBL1144013

Target: UniProt P34972
Sequence (P34972 whole entry): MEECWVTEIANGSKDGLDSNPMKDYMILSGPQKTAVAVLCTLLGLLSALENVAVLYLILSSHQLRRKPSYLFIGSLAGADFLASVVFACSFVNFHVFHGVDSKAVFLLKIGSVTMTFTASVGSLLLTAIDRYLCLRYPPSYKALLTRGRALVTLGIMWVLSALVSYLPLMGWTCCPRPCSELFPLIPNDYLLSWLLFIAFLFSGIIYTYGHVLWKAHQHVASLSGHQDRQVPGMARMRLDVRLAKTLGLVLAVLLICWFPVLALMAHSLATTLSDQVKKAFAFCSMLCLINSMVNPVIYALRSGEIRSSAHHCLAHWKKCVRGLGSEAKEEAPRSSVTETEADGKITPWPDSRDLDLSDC
Test: Agonist activity at human recombinant CB2 receptor expressed in HEK cells assessed as calcium mobilization by FLIPR
Exercise: for every item that follows, state its recorded EC50.
State just the number; it will be interpreted in nM.

Notebook entry, UniProt P34972 assay: EC50 of CC1(C)C(C(=O)c2cn(CC3CCOCC3)c3ccc(Br)cc23)C1(C)C = ?
280

Notebook entry, UniProt P34972 assay: EC50 of CC1(C)C(C(=O)c2cn(CC3CCOCC3)c3cc4c(cc23)OCO4)C1(C)C = ?
18

Notebook entry, UniProt P34972 assay: EC50 of CC1(C)C(C(=O)c2cn(CC3CCOCC3)c3ccc(N)cc23)C1(C)C = ?
10

Notebook entry, UniProt P34972 assay: EC50 of COc1cccc2c1c(C(=O)C1C(C)(C)C1(C)C)cn2CC1CCOCC1 = ?
81

Notebook entry, UniProt P34972 assay: EC50 of COCc1ccc2c(c1)c(C(=O)C1C(C)(C)C1(C)C)cn2CC1CCOCC1 = ?
41

Notebook entry, UniProt P34972 assay: EC50 of CC1(C)C(C(=O)c2cn(CC3CCOCC3)c3ccc(O)cc23)C1(C)C = ?
7
